assay: Novel Modifiers of Survival Motor Neuron (SMN) Protein: Gene Identification via Genome-wide siRNA Screen; settings: HEK293T SMN2-luciferase reporter, siRNA knockdown, 72 h; actives lie on both sides;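 also: luminescence tracks full-length SMN protein made from the SMN2 reporter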
Out of some 31,000 sequences screened, about 1,400 (4.5%) were called active.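 The calls were made as follows: active = median seed-adjusted z-score above 1 or below -1; inactive = the rest.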 The entries come from a sample that favours actives as a whole.
Log the outcome using a class from active, inactive

Worked examples follow.
>>> assigned_class("GUUCCAUCUUGAUCGAGUATT against RASSF9")
"inactive"
>>> assigned_class("GGCAGUGUUUAUUUACUAUTT against RHBDL2")
"inactive"
>>> assigned_class("GAAUGAGUUUUGUCAUGGATT against SUV39H2")
"inactive"

*Q* Call for entry GGAUCUACGUGUACGUCAATT against LPAR3 :
*A* inactive

*Q* Field: outcome | Entry: GAGCAGCUCUUAAGCAACATT against SAPS1
*A* active

*Q* Please indicate how the test categorized AGAACUGCGUGACUAUACATT against ZNF417 .
*A* inactive

* * *

test: Novel Modifiers of Survival Motor Neuron (SMN) Protein: Gene Identification via Genome-wide siRNA Screen; conditions: HEK293T SMN2-luciferase reporter, siRNA knockdown, 72 h; actives lie on both sides;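 also: luminescence tracks full-length SMN protein made from the SMN2 reporter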
The whole screen tested about 31,000 sequences, of which about 1,400 (4.5%) were called active. This excerpt belongs to a sample that is enriched for actives.
Catalogue of sequences with associated median seed-adjusted z-score

Recorded results for 5 sequences are shown here.
>>> result_value("GGAUGUCUCAUUACACCAUTT against TGFBR3")
"0.285 (inactive)"
>>> result_value("GGAGGUCUCAAGUUCAACATT against LENG8")
"-0.00539 (inactive)"
>>> result_value("CCACAAGGGUUAUCUGUCATT against MAPK4")
"0.235 (inactive)"
>>> result_value("GACCAGCAAUGCCUACGUATT against FLRT1")
"-0.00451 (inactive)"
>>> result_value("AGCGCGUCAUGAUGACCUATT against PER1")
"0.176 (inactive)"

*Q* Query (sequence): AGAGGAGAGUGGAAUUCCATT against ARID3C ; field requested: median seed-adjusted z-score
*A* -1.32 (active)

* * *

Experiment: Novel Modifiers of Survival Motor Neuron (SMN) Protein: Gene Identification via Genome-wide siRNA Screen;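 also: luminescence tracks full-length SMN protein made from the SMN2 reporter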
Details: HEK293T SMN2-luciferase reporter, siRNA knockdown, 72 h; actives lie on both sides
Method: Spinal muscular atrophy (SMA) is the most common neuromuscular autosomal recessive disorder and one of the leading genetic causes of infant death. […] Briefly, 1 pmol of each siRNA was spotted to a well of a 384-well plate (Corning, Corning, NY) and 20 microL of serum-free DMEM containing […] of Lipofectamine RNAiMax (Life Technologies, Carlsbad, CA) was then added to each well. […] Raw luminescence reads were normalized to Ambion(R) Silencer(R) Negative Control #2 siRNA, then log10 transformed. […]
Among all 31,000 sequences or so, about 1,400 (4.5%) were called active.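 The calls were made as follows: active = median seed-adjusted z-score above 1 or below -1; inactive = the rest.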 The sample as a whole holds a higher share of actives than the screen did.
Hi! Could you answer with just one of these? active, inactive

>>> assigned_class("GCACCUUCCUGCUAAGAUUTT against STAT3")
"inactive"

*Q* Give the logged outcome of this assay for the following sequence: GAGCAGAAAUUAUUCGUUATT against PGDS
*A* inactive

*Q* What did this assay record as the result for GCCUUGAUCAAGUAACAGATT against PARD6B ?
*A* inactive
